The values you see were collected from the RNAGym collection of RNA variant scans (doi:10.1073/pnas.2313332121).

B1: TPR 5TU (parent)
chain: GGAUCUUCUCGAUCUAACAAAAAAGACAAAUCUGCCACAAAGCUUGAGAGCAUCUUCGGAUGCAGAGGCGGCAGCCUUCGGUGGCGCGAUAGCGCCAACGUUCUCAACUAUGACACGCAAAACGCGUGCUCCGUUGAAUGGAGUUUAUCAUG

- Variants of: B1
- assay_info: polymerase ribozyme fitness, log enrichment relative to wild type (log ratio); higher = more active; in vitro selection for triplet polymerase activity
Variants at the floor of the assay were thinned out.
Each entry gets false if its polymerase ribozyme fitness (log ratio) stays under -0.6, and true if its polymerase ribozyme fitness (log ratio) is -0.6 or above.

{"columns": ["sequence_change", "class_assignment"],
 "data": [
  ["C8A G42U G50A G74U C95U", "false"],
  ["C35G G58C G92U C125G A150U", "false"],
  ["U109G A110C", "false"],
  ["A73U C96U G112A", "false"],
  ["A97G U101G", "true"],
  ["G92U A115C", "false"],
  ["G92A C116G", "false"],
  ["C8G C14U A26C U61A C69U G80A U145G", "false"],
  ["C18U U44A G50A A52U G74A A91U C105G A106G C129G", "false"],
  ["A37C C57G C76G A98G A138C G140U", "false"],
  ["G50U U56A A91G C116U", "false"],
  ["C57A G65A", "true"],
  ["A28G G84U", "false"],
  ["U13A A20U C35A G50A G83C C118G A119U C132U", "false"],
  ["A30U G74A C93G C103A A106G A113U", "false"],
  ["G48A C85G C125G", "false"],
  ["U55A C63U A142U", "true"],
  ["C51G G58U C93G C123U", "false"],
  ["U53G G83U G86A U104C", "false"],
  ["A30G C38A C57A G58C U78G A97G U101C U102G", "false"],
  ["A21G G58A A122U U145G", "true"],
  ["A16G C43U C51U G80C G117A A142C", "false"],
  ["A30U G94C A121G", "false"],
  ["C14G A17G G46C G81A C96G A120G", "false"],
  ["A19U C54G C79A U82C G84A A89C G92C U144C", "false"],
  ["C36U U56G A60C U61G C79U C93U C99U G112C U144A A150C", "false"],
  ["C32U C57U A121U C125U", "false"],
  ["G42U C85A C99U C108G A110G", "false"],
  ["U90C G94U", "false"],
  ["A17G C125A", "true"],
  ["A26G G42U G48C G50U G84C C87G", "false"],
  ["C35A G50C G86U C118A", "false"],
  ["A23U U61A A107U A115G", "false"],
  ["A39G A49G G70A C87A G94A C99G G126A", "false"],
  ["C27U A97U C116U A120C", "false"],
  ["C35U G59C", "true"],
  ["G117A", "true"],
  ["A20U A49C G50C G92U U146G C149U", "false"],
  ["A41G U45A C54G G92U", "false"],
  ["G58C A89U C95A G126U", "false"],
  ["U56A G62A A97G C103A", "false"],
  ["A3C C10G G62U G68C C87U A107C C123U G128A A137C U139C", "false"],
  ["A16U U82G C87U A122C", "false"],
  ["A3C A41G G50C U53G G67U G86C G128U C129U U146G C149U", "false"],
  ["A22U C96U C118U", "true"],
  ["C8G C35U G46C C72U G74U C96U A107G", "false"]
]}
